Experimental system: Mitogen-activated protein kinase 12 (Homo sapiens)
Sequence (P53778 whole entry): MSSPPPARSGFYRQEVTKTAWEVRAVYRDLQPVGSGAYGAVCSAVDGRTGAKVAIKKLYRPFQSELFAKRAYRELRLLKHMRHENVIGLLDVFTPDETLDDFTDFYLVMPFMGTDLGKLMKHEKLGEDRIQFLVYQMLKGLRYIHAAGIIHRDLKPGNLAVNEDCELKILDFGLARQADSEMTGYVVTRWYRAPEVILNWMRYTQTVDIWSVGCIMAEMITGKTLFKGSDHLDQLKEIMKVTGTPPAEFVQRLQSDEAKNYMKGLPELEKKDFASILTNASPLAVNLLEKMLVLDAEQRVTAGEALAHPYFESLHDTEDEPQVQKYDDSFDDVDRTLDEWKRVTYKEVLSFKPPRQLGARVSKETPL
Protocol notes: Binding affinity to human p38-gamma
Readout: Kd (µM)
A number alone suffices; assume µM.

Challenge: Kd lookup needed for NC(=O)c1ccc(-c2cc(C(N)=O)c(N)c(-c3ccc(S(N)(=O)=O)cc3)c2)cc1 , thanks.
Response given: 0.079

---

Experimental system: Tyrosine-protein kinase Fgr (Homo sapiens, UniProt P09769)
Sequence (P09769 whole entry): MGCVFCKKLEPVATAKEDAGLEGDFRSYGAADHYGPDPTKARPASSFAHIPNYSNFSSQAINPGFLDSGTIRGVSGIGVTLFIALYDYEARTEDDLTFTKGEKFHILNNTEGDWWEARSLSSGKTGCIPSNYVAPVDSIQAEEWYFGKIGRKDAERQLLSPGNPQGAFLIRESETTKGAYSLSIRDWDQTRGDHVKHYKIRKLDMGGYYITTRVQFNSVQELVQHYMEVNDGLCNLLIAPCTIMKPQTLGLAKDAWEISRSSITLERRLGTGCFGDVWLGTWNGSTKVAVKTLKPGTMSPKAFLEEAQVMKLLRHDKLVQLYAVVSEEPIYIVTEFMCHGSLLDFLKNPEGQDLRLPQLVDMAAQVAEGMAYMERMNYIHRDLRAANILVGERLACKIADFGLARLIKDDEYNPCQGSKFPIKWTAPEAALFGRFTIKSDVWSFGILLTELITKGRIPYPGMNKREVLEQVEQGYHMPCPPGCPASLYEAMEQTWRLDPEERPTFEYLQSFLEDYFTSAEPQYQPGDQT
Readout: Kd (nM)
A number alone suffices; assume nM.

Challenge: Kd lookup needed for Cc1ccc(O)cc1Nc1ccnc(Nc2cccc(C(N)=O)c2)n1 , thanks.
Response given: 0.3

---

Protocol notes: Binding affinity to human KHS2
Readout: pKd
Entry type: numeric. Quantity: pKd, the -log10 of concentration in molar units.

Challenge: pKd lookup needed for CCS(=O)(=O)Nc1ccc2c(c1)/C(=C(/Nc1ccc(CN3CCCCC3)cc1)c1ccccc1)C(=O)N2 , thanks.
Response given: 8.30

---

Experimental system: Serine/threonine-protein kinase Nek7 (Homo sapiens, UniProt Q8TDX7)
Sequence (Q8TDX7 whole entry): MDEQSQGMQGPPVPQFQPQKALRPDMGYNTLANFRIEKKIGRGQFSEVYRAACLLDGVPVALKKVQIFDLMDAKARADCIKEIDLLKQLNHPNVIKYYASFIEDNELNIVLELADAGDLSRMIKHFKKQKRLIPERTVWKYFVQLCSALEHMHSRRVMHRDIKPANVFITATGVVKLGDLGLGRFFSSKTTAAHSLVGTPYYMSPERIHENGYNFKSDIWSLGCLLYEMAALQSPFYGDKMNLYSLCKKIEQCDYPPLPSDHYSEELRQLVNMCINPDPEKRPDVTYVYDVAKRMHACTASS
pKd: −log10 of the molar value.
Readout: pKd

Challenge: pKd lookup needed for NC(=O)c1ccc(Nc2cc(-c3ccc(F)cc3)n[nH]2)cc1 , thanks.
Response given: < 4.40
